# System: Yap1 mRNA
# ASSAY: Antisense inhibition of human Yap1 in A-431 cells by cEt gapmers, single dose (Example 2, RTS4814)
# Type: cell-based
# RUN PARAMETERS: A-431 cells, 5,000 cells per well, free uptake, 2,000 nM modified oligonucleotide, approx. 48 hours, RTS4814, normalized to RIBOGREEN; Table 4; asterisk (*) = targets amplicon region of primer probe set
Strand notation (5' to 3'): a small letter for the sugar, then the base; units joined by * are phosphorothioate-linked, units joined directly phosphodiester-linked; [ ] holds rarer units or linkages, { } end groups; capitals alone tell only the bases. k = constrained ethyl (cEt); [5mC] = 5-methylcytosine; d = 2'-deoxy (DNA)
MEASURED QUANTITY: YAP1 (% UTC)
Respond with the bare value in % UTC.

Given 716382 (kA*kG*k[5mC]*dA*dT*dG*dG*d[5mC]*d[5mC]*dT*dT*d[5mC]*d[5mC]*kT*kG*kG; antisense) [Compound 716382] , state its recorded YAP1 (% UTC).
73

Further cases:
Given 716544 (antisense kT*kA*k[5mC]*dT*dT*dA*dA*d[5mC]*dA*d[5mC]*dA*dG*d[5mC]*kA*kA*k[5mC]) [Compound 716544] , state its recorded YAP1 (% UTC).
71

Given 716367 (k[5mC]*kA*kT*dG*dG*dG*d[5mC]*dA*d[5mC]*dG*dG*dT*d[5mC]*kT*kG*kG; antisense) [Compound 716367] , state its recorded YAP1 (% UTC).
70

Given 716568 (kG*kA*kT*dT*dT*dT*dT*dT*d[5mC]*dT*dG*dA*dG*kT*kT*k[5mC]; antisense) [Compound 716568] , state its recorded YAP1 (% UTC).
72

Given 716496 (kG*kA*kA*dG*dA*dG*dA*dT*dT*dT*dT*dA*dT*kG*k[5mC]*k[5mC]; antisense) [Compound 716496] , state its recorded YAP1 (% UTC).
19

Given 716475 (k[5mC]*kT*kT*d[5mC]*d[5mC]*dA*dA*dA*dA*d[5mC]*dT*dA*dA*kG*kG*k[5mC]; antisense) [Compound 716475] , state its recorded YAP1 (% UTC).
63

###

# Test system: Yap1 mRNA
# ASSAY: Dose-dependent inhibition of human Yap1 in A-431 cells (Example 8, 10,000 cells per well, RTS4814)
# Format: cell-based
# RUN PARAMETERS: A-431 cells, free uptake, approximately 48 hours, RTS4814; linear regression on log/linear plot
# Protocol: Modified oligonucleotides described in the studies above were tested at various doses in A-431 cells. […] After approximately 48 hours, Yap1 mRNA levels were measured as previously described using the Human Yap1 primer-probe set RTS4814. Yap1 mRNA levels were normalized to total RNA content, as measured by RIBOGREEN®. […] IC50s were calculated using a linear regression on a log/linear plot of the data in excel.
pIC50: −log10 of the molar value. Strand notation (5' to 3'): a small letter for the sugar, then the base; units joined by * are phosphorothioate-linked, units joined directly phosphodiester-linked; [ ] holds rarer units or linkages, { } end groups; capitals alone tell only the bases. k = constrained ethyl (cEt); [5mC] = 5-methylcytosine; d = 2'-deoxy (DNA)
MEASURED QUANTITY: pIC50

Given 1076527 (kG*k[5mC]*kA*d[5mC]*dA*dA*d[5mC]*d[5mC]*dT*dT*dA*d[5mC]*dA*kT*kT*kT; antisense) [compound 1076527] , state its recorded pIC50.
7.00

Given 1074728 (antisense kT*kG*kA*dG*dG*dT*dA*dT*dA*dA*d[5mC]*dT*dG*kG*kG*k[5mC]) [compound 1074728] , state its recorded pIC50.
> 7.70

Given 1075243 (k[5mC]*kT*kT*dA*dG*dT*dA*dA*dG*dA*dA*dT*dT*kG*kT*k[5mC]; antisense) [compound 1075243] , state its recorded pIC50.
> 7.70

Given 1076393 (antisense k[5mC]*kT*kT*dT*dA*d[5mC]*dT*dT*dA*d[5mC]*dT*dG*dG*kT*kG*kG) [compound 1076393] , state its recorded pIC50.
> 7.70

Given 1074418 (kT*kT*k[5mC]*dT*dT*dT*dA*dG*dA*dG*d[5mC]*d[5mC]*dA*kA*k[5mC]*kT; antisense) [compound 1074418] , state its recorded pIC50.
> 7.70

Further cases:
Given 1076115 (k[5mC]*kA*kT*dT*dA*dG*dT*dA*dA*dG*d[5mC]*dT*dG*kA*kG*kG; antisense) [compound 1076115] , state its recorded pIC50.
> 7.70

Given 1074447 (kA*kA*kT*dG*dA*dT*dA*dG*d[5mC]*dA*d[5mC]*dT*dA*kG*kG*kA; antisense) [compound 1074447] , state its recorded pIC50.
> 7.70

Given 1074448 (kT*kA*kA*dT*dG*dA*dT*dA*dG*d[5mC]*dA*d[5mC]*dT*kA*kG*kG; antisense) [compound 1074448] , state its recorded pIC50.
> 7.70

Given 1076467 (kG*kT*kA*dT*dT*dT*dA*dG*dA*dG*d[5mC]*dT*dT*kA*kA*kG; antisense) [compound 1076467] , state its recorded pIC50.
> 7.70

Given 1076294 (kT*kA*kT*dA*dT*dT*dA*dG*dT*dG*d[5mC]*d[5mC]*d[5mC]*k[5mC]*k[5mC]*kT; antisense) [compound 1076294] , state its recorded pIC50.
7.00

Given 1074737 (kT*kT*k[5mC]*dA*dG*dG*dT*d[5mC]*dA*dG*dT*dA*d[5mC]*kA*kG*kA; antisense) [compound 1074737] , state its recorded pIC50.
> 7.70

Given 1076397 (antisense kA*kA*k[5mC]*d[5mC]*dT*dA*dT*dA*dT*dT*dT*dG*dA*kG*k[5mC]*k[5mC]) [compound 1076397] , state its recorded pIC50.
> 7.70

Given 1075465 (antisense kG*kA*kT*dT*dT*dA*dT*dT*dG*dA*dA*d[5mC]*dT*kG*kA*kG) [compound 1075465] , state its recorded pIC50.
7.00

###

# Test system: Yap1 mRNA
# ASSAY: Antisense inhibition of human Yap1 in A-431 cells by cEt gapmers, single dose (Example 1, RTS4814)
# Type: cell-based
# RUN PARAMETERS: Table 2; A-431 cells, free uptake, 2,000 nM, approximately 48 hours, RTS4814; Yap1 mRNA relative to untreated control cells
Strand notation (5' to 3'): a small letter for the sugar, then the base; units joined by * are phosphorothioate-linked, units joined directly phosphodiester-linked; [ ] holds rarer units or linkages, { } end groups; capitals alone tell only the bases. k = constrained ethyl (cEt); [5mC] = 5-methylcytosine; d = 2'-deoxy (DNA)
MEASURED QUANTITY: YAP1 (% UTC)
Respond with the bare value in % UTC.

Solved cases below.
Given 715509 (antisense kT*kG*k[5mC]*dT*dG*dT*dG*d[5mC]*dT*dG*dG*dG*dA*kT*kT*kG) [Compound 715509] , state its recorded YAP1 (% UTC).
42

Given 715449 (antisense kT*kT*k[5mC]*dT*d[5mC]*dA*dA*dT*dT*d[5mC]*d[5mC]*dT*dG*kA*kG*kA) [Compound 715449] , state its recorded YAP1 (% UTC).
124

Here's the next entry for you.
Given 715422 (kA*kT*kG*dT*dT*dG*dT*dT*dG*dT*d[5mC]*dT*dG*kA*kT*k[5mC]; antisense) [Compound 715422] , state its recorded YAP1 (% UTC).
57

###

# System: Yap1 mRNA
# ASSAY: Antisense inhibition of human Yap1 in SNU-449 cells by modified oligonucleotides, single dose (Example 5, RTS36584)
# Assay type: cell-based
# RUN PARAMETERS: Table 44 experiment; SNU-449 cells, 10,000 cells per well, free uptake, 2,000 nM, approximately 48 hours; RTS36584; Yap1 mRNA normalized to RIBOGREEN, relative to untreated control cells
Strand notation (5' to 3'): a small letter for the sugar, then the base; units joined by * are phosphorothioate-linked, units joined directly phosphodiester-linked; [ ] holds rarer units or linkages, { } end groups; capitals alone tell only the bases. e = 2'-O-(2-methoxyethyl) (MOE); k = constrained ethyl (cEt); [5mC] = 5-methylcytosine; d = 2'-deoxy (DNA)
Group membership follows YAP1 (% UTC) per the scheme low value (below 20 % UTC), medium value (20 % UTC to below 40 % UTC), high value (40 % UTC or more)

Band of 1198524 (kT*kG*dT*dA*dT*dG*dT*d[5mC]*dA*dG*dA*eA*kG*eA*kG*eT; antisense) [Compound 1198524] ?
low value

Band of 1198516 (kA*kT*dA*dT*dT*dG*d[5mC]*dA*dA*dT*d[5mC]*eT*kG*eT*k[5mC]*eT; antisense) [Compound 1198516] ?
high value

Band of 1198901 (kT*kA*dG*dA*dG*dT*dA*dT*dG*dT*dG*kG*d[5mC]*kA*dA*kT; antisense) [Compound 1198901] ?
medium value

Band of 1198489 (antisense kT*kT*dG*dG*dA*dA*dG*dA*dT*d[5mC]*dT*eG*kA*eA*kA*e[5mC]) [Compound 1198489] ?
high value

Band of 1198514 (kG*kA*d[5mC]*dA*dA*d[5mC]*dT*d[5mC]*dT*dT*dA*eT*kA*eT*kG*eG; antisense) [Compound 1198514] ?
high value

Further cases:
Band of 1198500 (kA*kT*dT*dT*dA*dG*dG*dA*dT*dG*d[5mC]*eA*kT*eG*kG*eT; antisense) [Compound 1198500] ?
low value

Band of 958499 (kA*kT*kT*dA*dG*dA*dG*dT*dA*dT*dG*dT*dG*kG*k[5mC]*kA) [Compound 958499] ?
low value

Band of 1198475 (antisense kG*kG*dT*dA*dT*dA*dA*d[5mC]*dT*dG*dG*eG*k[5mC]*eA*kA*eA) [Compound 1198475] ?
medium value

Band of 1198490 (antisense kT*kT*dT*dG*dG*dA*dA*dG*dA*dT*d[5mC]*eT*kG*eA*kA*eA) [Compound 1198490] ?
high value

Band of 1198892 (kA*kA*dT*dT*dG*dT*d[5mC]*dT*d[5mC]*dA*dT*kG*d[5mC]*k[5mC]*dT*kT) [Compound 1198892] ?
medium value

Band of 1198900 (kA*kG*dA*dG*dT*dA*dT*dG*dT*dG*dG*k[5mC]*dA*kA*dT*kA; antisense) [Compound 1198900] ?
low value

Band of 1198491 (antisense k[5mC]*kT*dT*dT*dG*dG*dA*dA*dG*dA*dT*e[5mC]*kT*eG*kA*eA) [Compound 1198491] ?
medium value
